Molecular target: UniProtKB P08908
Sequence (P08908 whole entry): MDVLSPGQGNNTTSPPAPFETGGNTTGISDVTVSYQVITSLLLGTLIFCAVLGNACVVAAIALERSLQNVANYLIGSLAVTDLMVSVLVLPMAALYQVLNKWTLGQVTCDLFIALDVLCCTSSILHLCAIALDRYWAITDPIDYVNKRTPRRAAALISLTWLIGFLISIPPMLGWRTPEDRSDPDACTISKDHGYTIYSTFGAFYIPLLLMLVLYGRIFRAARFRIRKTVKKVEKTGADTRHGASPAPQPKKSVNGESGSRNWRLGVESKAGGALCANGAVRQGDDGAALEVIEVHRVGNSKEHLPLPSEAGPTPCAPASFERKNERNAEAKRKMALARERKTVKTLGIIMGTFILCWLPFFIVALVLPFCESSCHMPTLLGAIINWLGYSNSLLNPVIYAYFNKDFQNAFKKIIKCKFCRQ
Experiment: Displacement of [3H]8-OH-DPAT from human recombinant 5HT1A receptor expressed in CHO cells after 60 mins by liquid scintillation counting
Format: cell-based
Listed compounds paired with reported Ki
A number alone suffices; assume µM.

Worked examples, 3 compounds total:
>>> print(df.to_string())
                            compound_smiles  assay_endpoint  recorded_result
0  Clc1ccc2c(c1)N=C(N1CCN(CCc3ccccc3)CC1)c1cccnc1O2              Ki            0.019
1  Clc1ccc2c(c1)N=C(N1CCN(Cc3ccccc3)CC1)c1cccnc1O2              Ki            0.266
2  Clc1ccc2c(c1)N=C(N1CCN(C3CCCCC3)CC1)c1cccnc1O2              Ki            0.131

Now consider a different compound.
Test item Clc1ccc2c(c1)N=C(N1CCNCC1)c1cccnc1O2 ; UniProtKB P08908; reported Ki was 0.375

Data credit: ChEMBL document CHEMBL2021876
